study_system: ALK tyrosine kinase receptor (Homo sapiens, UniProt Q9UM73)
Sequence (Q9UM73 whole entry): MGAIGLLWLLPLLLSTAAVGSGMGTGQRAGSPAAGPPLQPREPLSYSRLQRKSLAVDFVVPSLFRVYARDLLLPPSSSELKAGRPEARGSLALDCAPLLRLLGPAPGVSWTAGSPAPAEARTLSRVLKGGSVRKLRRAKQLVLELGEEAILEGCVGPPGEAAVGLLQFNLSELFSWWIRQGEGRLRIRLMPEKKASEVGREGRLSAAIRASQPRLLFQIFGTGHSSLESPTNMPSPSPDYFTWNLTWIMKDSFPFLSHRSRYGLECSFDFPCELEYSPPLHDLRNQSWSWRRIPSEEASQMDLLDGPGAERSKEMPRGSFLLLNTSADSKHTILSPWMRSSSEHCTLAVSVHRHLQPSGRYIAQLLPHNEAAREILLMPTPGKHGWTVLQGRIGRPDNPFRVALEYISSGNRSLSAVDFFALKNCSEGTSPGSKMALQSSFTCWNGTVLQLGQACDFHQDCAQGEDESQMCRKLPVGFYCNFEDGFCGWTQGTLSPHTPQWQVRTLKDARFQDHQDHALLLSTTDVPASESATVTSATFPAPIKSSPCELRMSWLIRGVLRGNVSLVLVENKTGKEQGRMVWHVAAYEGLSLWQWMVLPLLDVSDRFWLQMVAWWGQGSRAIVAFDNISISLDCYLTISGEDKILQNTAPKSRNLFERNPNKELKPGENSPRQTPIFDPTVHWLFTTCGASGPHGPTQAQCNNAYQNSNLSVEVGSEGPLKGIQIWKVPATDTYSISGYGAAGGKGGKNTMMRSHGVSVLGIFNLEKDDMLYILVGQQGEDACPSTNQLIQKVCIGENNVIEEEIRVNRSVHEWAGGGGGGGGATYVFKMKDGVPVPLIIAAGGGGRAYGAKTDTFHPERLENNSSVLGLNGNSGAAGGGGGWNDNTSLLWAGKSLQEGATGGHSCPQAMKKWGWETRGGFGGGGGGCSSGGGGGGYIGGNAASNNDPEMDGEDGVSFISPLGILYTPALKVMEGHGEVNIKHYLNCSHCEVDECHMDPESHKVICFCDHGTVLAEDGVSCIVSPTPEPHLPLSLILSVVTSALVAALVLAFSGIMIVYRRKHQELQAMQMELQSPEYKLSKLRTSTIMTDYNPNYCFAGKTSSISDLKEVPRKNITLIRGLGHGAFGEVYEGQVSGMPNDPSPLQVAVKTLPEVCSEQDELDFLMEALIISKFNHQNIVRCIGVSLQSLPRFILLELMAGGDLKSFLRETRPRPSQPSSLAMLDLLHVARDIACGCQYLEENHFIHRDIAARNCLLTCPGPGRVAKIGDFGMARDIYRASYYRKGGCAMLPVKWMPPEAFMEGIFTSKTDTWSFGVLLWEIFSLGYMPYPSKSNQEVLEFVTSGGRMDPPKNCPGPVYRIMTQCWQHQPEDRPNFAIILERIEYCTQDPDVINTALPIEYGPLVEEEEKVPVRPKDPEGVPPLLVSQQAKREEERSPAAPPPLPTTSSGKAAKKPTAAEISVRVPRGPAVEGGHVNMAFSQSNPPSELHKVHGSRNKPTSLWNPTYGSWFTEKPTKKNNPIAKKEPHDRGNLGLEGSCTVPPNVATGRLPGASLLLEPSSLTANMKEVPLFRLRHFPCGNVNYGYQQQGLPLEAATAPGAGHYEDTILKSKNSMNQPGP
pIC50: −log10 of the molar value.
Parameter pIC50: see the listing below.

Previously resolved entries follow.
compound_structure: CNC(=O)c1ccccc1Nc1nc(Nc2nc3c(s2)CCNCC3)ncc1Cl
pIC50: 7.21
--
compound_structure: CC(C)S(=O)(=O)c1ccccc1Nc1nc(Nc2nc3c(s2)CNCC3)ncc1Cl
pIC50: < 6.00
--
compound_structure: CC(C)S(=O)(=O)c1ccccc1Nc1nc(Nc2nc(C(=O)N3CCCCC3)cs2)ncc1Cl
pIC50: < 6.00

Note: attention shifts to another entry.
ALK tyrosine kinase receptor (Homo sapiens, UniProt Q9UM73) pIC50 of CNC(=O)c1csc(Nc2ncc(Cl)c(Nc3ccccc3S(=O)(=O)C(C)C)n2)n1 is < 6.00

====

method_summary: Antiproliferative activity against human SUP-M2 cells assessed as growth inhibition at 200 nM after 72 hrs by SRB assay
Format: functional
condition_summary: SUP-M2, 72 h, read-out: GI
metric_name: inhibition of growth at 0.2 µM (%)
Enter your answer as a number in %; do not include the unit.

Previously resolved entries follow.
compound_structure: CC(C)S(=O)(=O)c1ccccc1Nc1nc(Nc2nc3c(s2)CCN(CCN2CCOCC2)CC3)ncc1Cl
unit_symbol: %
inhibition of growth at 0.2 µM: 19.8

compound_structure: CC(C)S(=O)(=O)c1ccccc1Nc1nc(Nc2nc(C(=O)N3C[C@H]4CN(C)C[C@H]4C3)cs2)ncc1Cl
unit_symbol: %
inhibition of growth at 0.2 µM: -0.1

compound_structure: CC(C)S(=O)(=O)c1ccccc1Nc1nc(Nc2nc(C(=O)N3CC4CCC(C3)O4)cs2)ncc1Cl
unit_symbol: %
inhibition of growth at 0.2 µM: 18.4

Recorded result, CCOC(=O)N1CCc2nc(Nc3ncc(Cl)c(Nc4ccccc4S(=O)(=O)C(C)C)n3)sc2CC1 , inhibition of growth at 0.2 µM: 5.5

Recorded result, CC(C)S(=O)(=O)c1ccccc1Nc1nc(Nc2nc3c(s2)CCN(C(=O)C2CCOCC2)CC3)ncc1Cl , inhibition of growth at 0.2 µM: 23.2

Recorded result, CC(C)S(=O)(=O)c1ccccc1Nc1nc(Nc2nc3c(s2)CCN(C)CC3)ncc1Cl , inhibition of growth at 0.2 µM: 0.15

Recorded result, CC(C)S(=O)(=O)c1ccccc1Nc1nc(Nc2nc3c(s2)CCN(C(=O)CO)CC3)ncc1Cl , inhibition of growth at 0.2 µM: 3.7

Recorded result, CC(C)S(=O)(=O)c1ccccc1Nc1nc(Nc2nc3c(s2)CCN(CC2CCOCC2)CC3)ncc1Cl , inhibition of growth at 0.2 µM: -13.7

Recorded result, CC(C)S(=O)(=O)c1ccccc1Nc1nc(Nc2nc(C(=O)NCCN3CCOCC3)cs2)ncc1Cl , inhibition of growth at 0.2 µM: 29.5

====

study_system: ALK tyrosine kinase receptor (Homo sapiens, UniProt Q9UM73, L1196M)
Sequence (Q9UM73 19-1620 L1196M limits assumed): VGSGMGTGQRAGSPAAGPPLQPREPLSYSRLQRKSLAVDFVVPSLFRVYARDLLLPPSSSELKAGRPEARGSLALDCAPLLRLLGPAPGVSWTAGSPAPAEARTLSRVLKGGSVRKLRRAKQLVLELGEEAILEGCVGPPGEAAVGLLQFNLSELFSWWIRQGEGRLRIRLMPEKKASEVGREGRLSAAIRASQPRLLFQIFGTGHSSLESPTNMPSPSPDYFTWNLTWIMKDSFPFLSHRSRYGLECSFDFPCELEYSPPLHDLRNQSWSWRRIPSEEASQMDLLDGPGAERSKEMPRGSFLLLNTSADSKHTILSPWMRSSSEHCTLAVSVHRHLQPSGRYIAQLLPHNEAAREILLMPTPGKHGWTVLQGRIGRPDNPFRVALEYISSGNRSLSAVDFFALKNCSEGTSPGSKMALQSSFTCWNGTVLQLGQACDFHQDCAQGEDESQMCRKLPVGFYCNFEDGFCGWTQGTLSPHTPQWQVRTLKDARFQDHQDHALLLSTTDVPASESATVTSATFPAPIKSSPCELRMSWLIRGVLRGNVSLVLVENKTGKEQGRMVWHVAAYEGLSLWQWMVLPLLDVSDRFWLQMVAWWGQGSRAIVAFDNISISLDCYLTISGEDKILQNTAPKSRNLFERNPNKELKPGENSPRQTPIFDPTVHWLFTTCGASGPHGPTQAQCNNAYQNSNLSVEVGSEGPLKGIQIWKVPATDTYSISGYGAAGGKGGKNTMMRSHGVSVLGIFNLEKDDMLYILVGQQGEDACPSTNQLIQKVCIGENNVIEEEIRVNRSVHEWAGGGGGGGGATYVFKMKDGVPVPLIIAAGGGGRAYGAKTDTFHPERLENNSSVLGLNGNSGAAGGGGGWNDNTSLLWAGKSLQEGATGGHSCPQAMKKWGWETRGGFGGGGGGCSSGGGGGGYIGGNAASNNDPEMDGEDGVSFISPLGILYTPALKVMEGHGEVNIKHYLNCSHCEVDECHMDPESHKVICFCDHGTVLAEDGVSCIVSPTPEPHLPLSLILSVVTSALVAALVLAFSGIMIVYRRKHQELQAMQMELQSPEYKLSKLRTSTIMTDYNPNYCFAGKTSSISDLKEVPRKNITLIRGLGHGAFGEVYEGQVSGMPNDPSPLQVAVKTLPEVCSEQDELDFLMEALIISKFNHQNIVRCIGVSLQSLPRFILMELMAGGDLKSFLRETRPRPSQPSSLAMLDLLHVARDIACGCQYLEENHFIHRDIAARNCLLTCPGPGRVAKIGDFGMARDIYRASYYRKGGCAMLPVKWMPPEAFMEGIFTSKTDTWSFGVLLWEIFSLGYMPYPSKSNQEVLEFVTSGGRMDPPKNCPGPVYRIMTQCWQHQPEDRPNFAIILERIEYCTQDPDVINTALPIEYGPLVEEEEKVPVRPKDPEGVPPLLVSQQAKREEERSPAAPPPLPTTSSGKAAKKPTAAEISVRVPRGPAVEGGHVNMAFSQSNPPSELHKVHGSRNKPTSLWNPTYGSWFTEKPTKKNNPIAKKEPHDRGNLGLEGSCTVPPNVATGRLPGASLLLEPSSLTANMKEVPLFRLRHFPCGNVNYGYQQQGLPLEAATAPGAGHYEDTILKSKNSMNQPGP
method_summary: Inhibition of purified ALK L1196M mutant (unknown origin) after 60 mins by ELISA kinase assay
metric_name: IC50 (nM)
Enter your answer as a number in nM; do not include the unit.

Recorded result, CC(C)S(=O)(=O)c1ccccc1Nc1nc(Nc2nc3c(s2)CCN(C(=O)C2CCOCC2)CC3)ncc1Cl , IC50: 24
